Catalogue of variants with associated polymerase ribozyme fitness (log ratio)
B1: TPR t1 (parent)
chain: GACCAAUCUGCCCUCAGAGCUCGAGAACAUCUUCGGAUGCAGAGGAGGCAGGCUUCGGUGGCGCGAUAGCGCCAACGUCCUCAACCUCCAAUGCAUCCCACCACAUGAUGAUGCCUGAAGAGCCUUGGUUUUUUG

Variants of: B1
Assay details: polymerase ribozyme fitness, log enrichment relative to wild type (log ratio); higher = more active; in vitro selection for triplet polymerase activity
Measured property: polymerase ribozyme fitness (log ratio)

| Variant key | Observed value |
| --- | --- |
| A27G G135U | -2.21 |
| G42U G58C U87C G120A C123G U125A | 0.38 |
| U7C G47A G48A A90C U112C | -1.65 |
| A5G G51A A84C C89U U106A U112C | -2.68 |
| A50U A111G | -0.837 |
| C12U A37U C85U G93C G120A | 0.532 |
| G44A C72U G93U C97U U131A | -2.85 |
| C73G C102U A119G | -1.29 |
| C4G C8G C40G C124U | 0.299 |
| C56G C89A | -2.22 |
| G48C C56U C85U U126G | -2.57 |
| G10C C56U G117C | -4.57 |
| U9C C56G | 0.559 |
| A41C G58A C72U | -0.757 |
| A27U G117U C123G | -4.27 |
| A29U C53A U129G | -2.03 |
| C15U C53G C82A | -1.78 |
| A68G C82U | -2.87 |
| G17A G52C G60C U81C C115G | -3.56 |
| U7G C72U C115U | 0.671 |
| U9G G36U G60C A68G U78A C88A | -6.1 |
| C8U C72U C82A A84C A111C | 0.264 |
| C22A A74G C97U | -4.56 |
| A18G G36A G61A U116C A118G | -3.23 |
| C64U G135U | -0.52 |
| A2C A50U | -2.44 |
| G19A G69A | -4.57 |
| C11U C114U | -1.57 |
| G17A A91C G93C G120C U131C | -1.37 |
| C85U U133A | -0.839 |
| A6C C15U C70U C101A U130G | -4.08 |
| G58A U92A | -2.93 |
| U7C C72A A83G | -0.327 |
| A26U G45A U54A | -4.06 |
